Measured values drawn from paper PMC7318243 for this set.

Each entry below carries its reported pIC50.
Target: KRAS^G12C (Homo sapiens, UniProt P01116, G12C)
Construct: KRASG12C (aa 1–169, G12C) were produced for the biochemical assay
Test: Biochemical assay: KRAS^G12C activation by SOS1CAT (HTRF, fluorescent GTP loading)
Details: 180 min pre-incubation with KRAS before addition of SOS1
pIC50: −log10 of the molar value.

{"columns": ["molecule", "comparisonSymbol", "pIC50"],
 "data": [
  ["C=CC(=O)N1CCC(c2cc3ncc(-c4c(O)cccc4F)cc3c(=O)[nH]2)C1 (stereo not shown)", "=", 5.55],
  ["C=CC(=O)N1CCC(c2cc3ccc(-c4cc(F)cc(F)c4)cc3c(=O)[nH]2)C1 (stereo not shown)", "<", 4.70],
  ["C=CC(=O)N1CCC(c2cc3ccc(-c4ccccc4CC)cc3c(=O)[nH]2)C1 (stereo not shown)", "=", 5.10],
  ["C=CC(=O)N1CCC(c2cc3ccc(-c4c(O)cccc4F)cc3c(=O)[nH]2)C1 (stereo not shown)", "=", 5.33]
]}

----------
Target: KRAS^G12C (recombinant KRAS mutant G12C, C51S, C80L, C118S) (Homo sapiens, UniProt P01116, C118S/C51S/C80L/G12C)
Construct: made in house
Experiment: Covalent binding assay by mass spectrometry (intact mass, % covalent adduct)
Settings: 25 µM protein, 25 µM compound, room temperature, 2 h
Each entry below carries its reported MS assay [% binding] (KRAS^G12C bound fraction).
propertyName: MS assay [% binding] (KRAS^G12C bound fraction) (%)

{"columns": ["molecule", "val"],
 "data": [
  ["C=CC(=O)N1CCCC(c2cc3ccc(-c4c(O)cccc4F)cc3c(=O)[nH]2)C1 (centres unmarked) [Compound 9]", 0],
  ["C=CC(=O)N1CCC(c2cc3ccc(-c4c(O)cccc4F)cc3c(=O)[nH]2)CC1 [Compound 8]", 0],
  ["C=CC(=O)N1CCC(c2cc3ncc(-c4c(O)cccc4F)cc3c(=O)[nH]2)C1 (centres unmarked) [Compound 1]", 80],
  ["C=CC(=O)N1CCC(c2nc3ccc(-c4c(O)cccc4F)cc3c(=O)[nH]2)C1 (centres unmarked) [Compound 11]", 59],
  ["C=CC(=O)N1CCC(c2cc3ccc(-c4ccccc4CC)cc3c(=O)[nH]2)C1 (centres unmarked) [Compound 5]", 60],
  ["C=CC(=O)N1CCC(c2cc3ccc(-c4c(O)cccc4F)cc3c(=O)[nH]2)C1 (centres unmarked) [Compound 2]", 35],
  ["C=CC(=O)N1CCC(c2cc3ccc(-c4cccc5ncccc45)cc3c(=O)[nH]2)C1 (centres unmarked) [Compound 6]", 20],
  ["C=CC(=O)N1CCC(c2cc3ccc(-c4cc(F)cc(F)c4)cc3c(=O)[nH]2)C1 (centres unmarked) [Compound 4]", 0]
]}

----------
Tested on: active RAS
Assay: Cellular assay for RAS activation (G-LISA)
Format: cell-based
Conditions: 24 h treatment; read-out: Cellular IC50 (inhibition of active RAS formation)
pIC50: −log10 of the molar value.

{"columns": ["molecule", "pIC50"],
 "data": [
  ["C=CC(=O)N1CCC(c2cc3cnc(-c4c(O)cccc4F)cc3c(=O)[nH]2)C1 (stereo not drawn)", 4.66],
  ["C=CC(=O)N1CCC(c2cc3ncc(-c4c(O)cccc4F)cc3c(=O)[nH]2)C1 (stereo not drawn)", "< 4.52"],
  ["C=CC(=O)N1CCC(c2cc3ccc(-c4c(O)cccc4F)cc3c(=O)[nH]2)C1 (stereo not drawn)", "< 4.52"]
]}
